Target: Calcitonin receptor (Homo sapiens, UniProt P30988); note: in other assays of this panel Not Active means under 50% inhibition at 10 µM
Sequence (P30988 whole entry): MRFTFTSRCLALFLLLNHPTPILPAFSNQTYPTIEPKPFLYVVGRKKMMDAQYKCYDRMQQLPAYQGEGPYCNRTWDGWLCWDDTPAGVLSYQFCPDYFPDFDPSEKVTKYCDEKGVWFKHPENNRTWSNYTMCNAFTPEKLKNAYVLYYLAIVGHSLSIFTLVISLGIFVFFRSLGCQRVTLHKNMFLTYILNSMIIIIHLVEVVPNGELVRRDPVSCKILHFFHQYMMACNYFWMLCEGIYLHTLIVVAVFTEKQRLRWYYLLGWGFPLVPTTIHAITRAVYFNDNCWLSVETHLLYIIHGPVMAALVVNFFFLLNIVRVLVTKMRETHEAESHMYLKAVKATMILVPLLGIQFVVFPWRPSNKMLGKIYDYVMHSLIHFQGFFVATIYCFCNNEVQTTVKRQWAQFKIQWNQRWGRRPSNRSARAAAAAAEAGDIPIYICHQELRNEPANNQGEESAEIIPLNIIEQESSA
Type: cell membranes, Membrane
Details: t47d
attribute_measured: IC50

>  <compound>
CC(C)Cn1cnc2c(N)nc3ccccc3c21

>  <subject_of_test>
Calcitonin receptor (Homo sapiens, UniProt P30988); note: in other assays of this panel Not Active means under 50% inhibition at 10 µM

>  <attribute_measured>
IC50

>  <value_observed>
Not Active

$$$$
>  <compound>
CC(C)(C)NC[C@H](O)COc1cccc2c1CCCC2=O

>  <subject_of_test>
Calcitonin receptor (Homo sapiens, UniProt P30988); note: in other assays of this panel Not Active means under 50% inhibition at 10 µM

>  <attribute_measured>
IC50

>  <value_observed>
Not Active

$$$$
>  <compound>
O=C(O)COC(=O)Cc1ccccc1Nc1c(Cl)cccc1Cl

>  <subject_of_test>
Calcitonin receptor (Homo sapiens, UniProt P30988); note: in other assays of this panel Not Active means under 50% inhibition at 10 µM

>  <attribute_measured>
IC50

>  <value_observed>
Not Active

$$$$
>  <compound>
C1CCN2C[C@@H]3C[C@@H](CN4CCCC[C@@H]34)[C@H]2C1

>  <subject_of_test>
Calcitonin receptor (Homo sapiens, UniProt P30988); note: in other assays of this panel Not Active means under 50% inhibition at 10 µM

>  <attribute_measured>
IC50

>  <value_observed>
Not Active

$$$$
>  <compound>
CC12CCC(CC1=O)C2(C)C (configuration not stated)

>  <subject_of_test>
Calcitonin receptor (Homo sapiens, UniProt P30988); note: in other assays of this panel Not Active means under 50% inhibition at 10 µM

>  <attribute_measured>
IC50

>  <value_observed>
Not Active

$$$$
>  <compound>
O=C(O)CNCP(=O)(O)O [GLYPHOSATE]

>  <subject_of_test>
Calcitonin receptor (Homo sapiens, UniProt P30988); note: in other assays of this panel Not Active means under 50% inhibition at 10 µM

>  <attribute_measured>
IC50

>  <value_observed>
Not Active

$$$$
>  <compound>
COC(=O)Nc1nc2ccc(Sc3ccccc3)cc2[nH]1

>  <subject_of_test>
Calcitonin receptor (Homo sapiens, UniProt P30988); note: in other assays of this panel Not Active means under 50% inhibition at 10 µM

>  <attribute_measured>
IC50

>  <value_observed>
Not Active

$$$$
>  <compound>
NC(=O)NC(=O)Cc1ccccc1 [PHENACEMIDE]

>  <subject_of_test>
Calcitonin receptor (Homo sapiens, UniProt P30988); note: in other assays of this panel Not Active means under 50% inhibition at 10 µM

>  <attribute_measured>
IC50

>  <value_observed>
Not Active

$$$$
>  <compound>
CS(=O)(=O)c1ccc(C2=C(c3ccccc3)C(=O)OC2)cc1

>  <subject_of_test>
Calcitonin receptor (Homo sapiens, UniProt P30988); note: in other assays of this panel Not Active means under 50% inhibition at 10 µM

>  <attribute_measured>
IC50

>  <value_observed>
Not Active

$$$$
>  <compound>
C[C@H](C(=O)O)c1ccc2oc(-c3ccc(F)cc3)nc2c1

>  <subject_of_test>
Calcitonin receptor (Homo sapiens, UniProt P30988); note: in other assays of this panel Not Active means under 50% inhibition at 10 µM

>  <attribute_measured>
IC50

>  <value_observed>
Not Active

$$$$
>  <compound>
CCN1CCN(C(=O)N[C@@H](C(=O)N[C@@H]2C(=O)N3[C@@H]2SC(C)(C)[C@@H]3C(=O)O)c2ccccc2)C(=O)C1=O

>  <subject_of_test>
Calcitonin receptor (Homo sapiens, UniProt P30988); note: in other assays of this panel Not Active means under 50% inhibition at 10 µM

>  <attribute_measured>
IC50

>  <value_observed>
Not Active

$$$$
>  <compound>
Oc1ccc(/C=C/c2cc(O)cc(O)c2)cc1

>  <subject_of_test>
Calcitonin receptor (Homo sapiens, UniProt P30988); note: in other assays of this panel Not Active means under 50% inhibition at 10 µM

>  <attribute_measured>
IC50

>  <value_observed>
Not Active

$$$$
>  <compound>
O=C(OC[C@H]1O[C@@H](OC(=O)c2cc(O)c(O)c(OC(=O)c3cc(O)c(O)c(O)c3)c2)[C@H](OC(=O)c2cc(O)c(O)c(OC(=O)c3cc(O)c(O)c(O)c3)c2)[C@@H](OC(=O)c2cc(O)c(O)c(OC(=O)c3cc(O)c(O)c(O)c3)c2)[C@@H]1OC(=O)c1cc(O)c(O)c(OC(=O)c2cc(O)c(O)c(O)c2)c1)c1cc(O)c(O)c(OC(=O)c2cc(O)c(O)c(O)c2)c1

>  <subject_of_test>
Calcitonin receptor (Homo sapiens, UniProt P30988); note: in other assays of this panel Not Active means under 50% inhibition at 10 µM

>  <attribute_measured>
IC50

>  <value_observed>
Not Active

$$$$
>  <compound>
COc1cc([C@@H]2c3cc4c(cc3[C@H](O)[C@H]3COC(=O)[C@H]23)OCO4)cc(OC)c1OC

>  <subject_of_test>
Calcitonin receptor (Homo sapiens, UniProt P30988); note: in other assays of this panel Not Active means under 50% inhibition at 10 µM

>  <attribute_measured>
IC50

>  <value_observed>
Not Active

$$$$
>  <compound>
CCN1CCCC1CNC(=O)c1cc(S(N)(=O)=O)ccc1OC (configuration not stated) [SULPIRIDE]

>  <subject_of_test>
Calcitonin receptor (Homo sapiens, UniProt P30988); note: in other assays of this panel Not Active means under 50% inhibition at 10 µM

>  <attribute_measured>
IC50

>  <value_observed>
Not Active

$$$$
>  <compound>
O=c1[nH]cnc2c1ncn2[C@H]1CC[C@@H](CO)O1

>  <subject_of_test>
Calcitonin receptor (Homo sapiens, UniProt P30988); note: in other assays of this panel Not Active means under 50% inhibition at 10 µM

>  <attribute_measured>
IC50

>  <value_observed>
Not Active

$$$$
>  <compound>
COc1ccc(C[C@H](N)C(=O)N[C@H]2[C@@H](O)[C@H](n3cnc4c(N(C)C)ncnc43)O[C@@H]2CO)cc1

>  <subject_of_test>
Calcitonin receptor (Homo sapiens, UniProt P30988); note: in other assays of this panel Not Active means under 50% inhibition at 10 µM

>  <attribute_measured>
IC50

>  <value_observed>
Not Active

$$$$

Attribution: ChEMBL document CHEMBL1909046
